Readout: melting point

COc1cc(Br)c(/C=C/c2cc(/C=C/c3ccc4cc[nH]c4c3)[nH]n2)cc1O; 137 to 142 °C
COc1cc(OCc2ccccn2)ccc1/C=C/c1cc(/C=C/c2cc3ccccc3o2)[nH]n1; 199.4 to 200.9 °C
C(=C\c1cc(/C=C/c2ccc3cc[nH]c3c2)[nH]n1)/c1ccc(N2CCOCC2)cc1; 236 to 238 °C
COc1cc(OCc2ccccn2)ccc1/C=C/c1cc(/C=C/c2ccc3ccn(Cc4ccccc4)c3c2)[nH]n1; 89 to 93 °C
C(=C\c1cc(/C=C/c2c[nH]c3ccccc23)[nH]n1)/c1ccc(OCc2ccccn2)cc1; 196 to 199 °C
C(=C\c1cc(/C=C/c2ccc3cc[nH]c3c2)[nH]n1)/c1ccc(N2CCCCC2)cc1; 189 to 191 °C
COc1cc(OCc2ccncc2)ccc1/C=C/c1cc(/C=C/c2c[nH]c3ccccc23)[nH]n1; 128 to 139 °C
COc1cc(OCc2cccnc2)ccc1/C=C/c1cc(/C=C/c2cccc3[nH]ccc23)[nH]n1; 109 to 114 °C

Which melting point is reported for this compound? `COc1cc(OCc2ccccn2)ccc1/C=C/c1cc(/C=C/c2ccc3ccn(C(C)=O)c3c2)[nH]n1` 182 to 187 °C

Which melting point is reported for this compound? `COc1cc(O[C@@H]2O[C@H](CO)[C@@H](O)[C@H](O)[C@H]2O)ccc1/C=C/c1cc(/C=C/c2ccc3cc[nH]c3c2)[nH]n1` 194 to 199 °C

Which melting point is reported for this compound? `COc1cc(OCc2ccccn2)ccc1/C=C/c1cc(/C=C/c2cc3ccccc3s2)[nH]n1` 231.1 to 232.1 °C

Which melting point is reported for this compound? `COc1cc(OCc2ccccn2)ccc1/C=C/c1cc(/C=C/c2ccc3[nH]cnc3c2)[nH]n1` 135 to 142 °C

Which melting point is reported for this compound? `CCN(CC)c1ccc(/C=C/c2cc(/C=C/c3ccc4cc[nH]c4c3)[nH]n2)c(OCCN2CCCCC2)c1` 102 to 104 °C

Which melting point is reported for this compound? `COc1cc(OCc2ccccn2)ccc1/C=C/c1cc(/C=C/c2cccc3cc[nH]c23)[nH]n1` 99 to 110 °C

Which melting point is reported for this compound? `COc1cc(OCc2cccnc2)ccc1/C=C/c1cc(/C=C/c2c[nH]c3ccccc23)[nH]n1` 129 to 137 °C

====

- Tgt: recombinant three-repeat microtubule-binding domain (3R-MBD) of tau protein (Homo sapiens, UniProt P10636)
- Sequence (P10636 186-279 isoform P10636-2 limits assumed): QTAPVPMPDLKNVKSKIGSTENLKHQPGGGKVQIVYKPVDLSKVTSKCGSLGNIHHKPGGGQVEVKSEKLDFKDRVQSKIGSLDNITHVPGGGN
- Assay name: Determination of tau aggregation inhibitory activity (heparin-induced, thioflavin T fluorescence; electron microscope)
- Assay type: biochemical
- Recorded conditions: 3R-MBD tau 10 μM, heparin 10 μM, 37° C. for 16 hours, thioflavin T; read-out: IC50 (μM) Test example 1 (tau aggregation inhibitory activity)
- Experimental: Pharmacological Test Example 1: Determination of Tau Aggregation Inhibitory Activity A recombinant three-repeat microtubule-binding domain (3R-MBD) of tau protein was expressed in E. coli and was purified and used for the experiment. […] Thioflavin T was added to the plate so that the concentration would be 10 μM and the fluorescence intensity was measured with a fluorescence plate reader (PerkinElmer, Inc.) (excitation wavelength: 440 nm; emission wavelength: 480 nm). […]
Readout: IC50 (µM)

P. COc1cc(OCc2ccccn2)ccc1/C=C/c1cc(/C=C/c2ccc(O)c(N)c2)[nH]n1
Q. COc1cc(OCc2ccccn2)ccc1/C=C/c1cc(/C=C/c2ccc3c(c2)OCCO3)[nH]n1
R. COc1ccc([N+](=O)[O-])c(/C=C/c2cc(/C=C/c3ccc4cc[nH]c4c3)[nH]n2)c1
Order these by IC50, descending, and give the full ranking. Please write the labels in the order that was asked for. R, P, Q
(R: 3.84 µM, P: 1.46 µM, Q: 0.85 µM)
